- Test system: NCI-H1755
- assay.explanation: relative viability (nuclei count vs DMSO), 5 days (fraction); higher = more cells survive
- reported.conditions: first compound 8 µM
measured.attribute: relative viability
The reply should be a number, written without any unit.

The cases that follow already have their relative viability on record.
{"compound": "CCCCCCCCCCCC1=C(O)C(=O)C=C(O)C1=O [Embelin] + Nc1nc2[nH]cc(CCc3ccc(C(=O)N[C@@H](CCC(=O)O)C(=O)O)cc3)c2c(=O)[nH]1 [Pemetrexed] (partner 0.2 µM)", "relative viability": 0.46}
{"compound": "CCCCCCCCCCCC1=C(O)C(=O)C=C(O)C1=O [Embelin] + C[C@]1(O)C[C@@H](c2nc(-c3ccc4ccc(-c5ccccc5)nc4c3)c3c(N)nccn32)C1 [Linsitinib] (partner 1 µM)", "relative viability": 0.98}
{"compound": "CCCCCCCCCCCC1=C(O)C(=O)C=C(O)C1=O [Embelin] + N=C(N)NC(=N)NCCc1ccccc1 [Phenformin] (partner 250 µM)", "relative viability": 0.6}

Here's the next entry for you.
Qu. Supply measured relative viability of CCCCCCCCCCCC1=C(O)C(=O)C=C(O)C1=O [Embelin] + O=C(c1cc(Cc2n[nH]c(=O)c3ccccc23)ccc1F)N1CCN(C(=O)C2CC2)CC1 [Olaparib] (partner 8 µM) in your reply.
Ans. 0.849

====

- Test system: NCI-H3122
- assay.explanation: relative viability (nuclei count vs DMSO), 5 days (fraction); higher = more cells survive
- reported.conditions: first compound 4 µM
// reported relative viability for each item listed
The reply should be a number, written without any unit.

The cases that follow already have their relative viability on record.
{"compound": "COc1cc(N2CCC(C(N)=O)CC2)ccc1Nc1nc(N)c(Cl)c(Nc2ccccc2S(=O)(=O)C(C)C)n1 [HG-5-88-01] + Cc1cc(Nc2cc(N3CCN(C)CC3)nc(Sc3ccc(NC(=O)C4CC4)cc3)n2)n[nH]1 [Tozasertib] (partner 0.1 µM)", "target.of.assay": "NCI-H3122", "readout.value": 0.0832}
{"compound": "C[C@@H]1CN(CC(=O)Nc2ccc3c(c2)Cc2cccc(-c4cc(=O)cc(N5CCOCC5)o4)c2S3)C[C@H](C)O1 + CC1(C)CCC(c2ccc(Cl)cc2)=C(CN2CCN(c3ccc(C(=O)NS(=O)(=O)c4ccc(N[C@H](CCN5CCOCC5)CSc5ccccc5)c(S(=O)(=O)C(F)(F)F)c4)cc3)CC2)C1 [Navitoclax] (partner 0.5 µM)", "target.of.assay": "NCI-H3122", "readout.value": 0.95}
{"compound": "COc1cc(N2CCC(C(N)=O)CC2)ccc1Nc1nc(N)c(Cl)c(Nc2ccccc2S(=O)(=O)C(C)C)n1 [HG-5-88-01] + COc1cc2c(Oc3ccc(NC(=O)C4(C(=O)Nc5ccc(F)cc5)CC4)cc3F)ccnc2cc1OCCCN1CCOCC1 [Foretinib] (partner 0.25 µM)", "target.of.assay": "NCI-H3122", "readout.value": 0.15}
{"compound": "C[C@@H]1CN(CC(=O)Nc2ccc3c(c2)Cc2cccc(-c4cc(=O)cc(N5CCOCC5)o4)c2S3)C[C@H](C)O1 + CS(=O)(=O)N1CCN(Cc2cc3nc(-c4cccc5[nH]ncc45)nc(N4CCOCC4)c3s2)CC1 [Pictilisib] (partner 1 µM)", "target.of.assay": "NCI-H3122", "readout.value": 0.472}
{"compound": "Clc1ccc(Nc2nnc(Cc3ccncc3)c3ccccc23)cc1 [Vatalanib] + N=C(N)NC(=N)NCCc1ccccc1 [Phenformin] (partner 250 µM)", "target.of.assay": "NCI-H3122", "readout.value": 0.323}
{"compound": "C[C@@H]1CN(CC(=O)Nc2ccc3c(c2)Cc2cccc(-c4cc(=O)cc(N5CCOCC5)o4)c2S3)C[C@H](C)O1 + Nc1nc2[nH]cc(CCc3ccc(C(=O)N[C@@H](CCC(=O)O)C(=O)O)cc3)c2c(=O)[nH]1 [Pemetrexed] (partner 0.2 µM)", "target.of.assay": "NCI-H3122", "readout.value": 0.183}
{"compound": "C[C@@H]1CN(CC(=O)Nc2ccc3c(c2)Cc2cccc(-c4cc(=O)cc(N5CCOCC5)o4)c2S3)C[C@H](C)O1 + NC(=O)Nc1cc(-c2cccc(F)c2)sc1C(=O)N[C@H]1CCCNC1 [AZD7762] (partner 0.2 µM)", "target.of.assay": "NCI-H3122", "readout.value": 0.733}
{"compound": "COc1cc(N2CCC(C(N)=O)CC2)ccc1Nc1nc(N)c(Cl)c(Nc2ccccc2S(=O)(=O)C(C)C)n1 [HG-5-88-01] + O=C(c1cc(Cc2n[nH]c(=O)c3ccccc23)ccc1F)N1CCN(C(=O)C2CC2)CC1 [Olaparib] (partner 8 µM)", "target.of.assay": "NCI-H3122", "readout.value": 0.15}
{"compound": "COc1cc(N2CCC(C(N)=O)CC2)ccc1Nc1nc(N)c(Cl)c(Nc2ccccc2S(=O)(=O)C(C)C)n1 [HG-5-88-01] + C[C@]1(O)C[C@@H](c2nc(-c3ccc4ccc(-c5ccccc5)nc4c3)c3c(N)nccn32)C1 [Linsitinib] (partner 1 µM)", "target.of.assay": "NCI-H3122", "readout.value": 0.226}

Here's the next entry for you.
Qu. Supply measured relative viability of Clc1ccc(Nc2nnc(Cc3ccncc3)c3ccccc23)cc1 [Vatalanib] + C[C@]1(O)C[C@@H](c2nc(-c3ccc4ccc(-c5ccccc5)nc4c3)c3c(N)nccn32)C1 [Linsitinib] (partner 1 µM) in your reply.
Ans. 1.02
